# experimentNotes: in vivo
# protocolConditions: rat, in vivo, po, male
observationType: LD50 at 336 h (mg/kg)
Express your answer in mg/kg, writing the number without its unit.

Briefly, LD50 at 336 h measured for "O=C(O)Cc1ccc2c(c1)C(=O)c1ccccc1CN2" : 810

----------
# experimentNotes: in vivo
# protocolConditions: rat, in vivo, po, female
observationType: LD50 at 336 h (mg/kg)
// note: answer is a bare numeric in mg/kg

response.value for "O=C(O)Cc1ccc2c(c1)C(=O)c1ccccc1CN2" (field: LD50 at 336 h) = 840
